Reported IC50 values follow for various compounds
tgt: PLK1 (Homo sapiens)
Construct: The PLK1 ORF was cloned into pSSP1 such that the resulting PLK1 translation product would have a 19 amino acid N-terminal tag; made in house; host or cells: Sf9 insect cells (baculovirus)
Sequence (P53350 whole entry): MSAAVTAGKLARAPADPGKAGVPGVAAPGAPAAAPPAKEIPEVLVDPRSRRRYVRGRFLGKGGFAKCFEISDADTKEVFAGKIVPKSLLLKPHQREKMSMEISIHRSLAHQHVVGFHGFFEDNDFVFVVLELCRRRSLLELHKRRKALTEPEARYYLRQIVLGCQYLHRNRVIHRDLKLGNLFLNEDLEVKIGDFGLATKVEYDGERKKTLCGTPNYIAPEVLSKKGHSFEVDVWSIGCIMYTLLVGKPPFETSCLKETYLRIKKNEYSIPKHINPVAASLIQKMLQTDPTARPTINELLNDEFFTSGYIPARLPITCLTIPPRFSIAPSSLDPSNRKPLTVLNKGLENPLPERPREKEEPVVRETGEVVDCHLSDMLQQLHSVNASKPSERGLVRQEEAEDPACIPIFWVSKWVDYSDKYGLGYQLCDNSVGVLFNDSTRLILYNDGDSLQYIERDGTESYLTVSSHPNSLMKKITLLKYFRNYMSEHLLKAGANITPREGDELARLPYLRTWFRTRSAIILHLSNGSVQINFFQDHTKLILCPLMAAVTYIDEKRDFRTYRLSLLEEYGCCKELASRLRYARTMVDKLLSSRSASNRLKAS
test: PLK1 kinase assay (CDC25C phosphorylation, [γ-32P]-ATP)
Assay type: biochemical
condition.description: Kinase inhibition, flavonoid compounds; read-out: Plk1 IC50

Some compounds with known IC50 results, for comparison:
compound | IC50
O=c1c(O)c(-c2ccccc2O)oc2cc(O)cc(O)c12 | > 100 µM
O=c1c(O)c(-c2cc(O)c(O)c(O)c2)oc2cc(O)ccc12 | 60 µM
O=c1c(-c2ccc(O)cc2)coc2cc(O)ccc12 | > 100 µM

-- ask Data request, read-out IC50, for COc1ccc(-c2oc3cc(O)cc(O)c3c(=O)c2O)cc1 [kaempferide]
-- reply > 100 µM

-- ask Need IC50 of O=c1c(O)c(-c2ccc(O)cc2O)oc2cc(O)cc(O)c12 [morin hydrate] , thanks.
-- reply 12.6 µM

-- ask Reported IC50, compound O=c1c(O)c(-c2ccc(O)c(O)c2)oc2cc(O)ccc12 : ____
-- reply > 100 µM

-- ask I have this compound here, O=c1c(O)c(-c2ccccc2)oc2cc(O)cc(O)c12 , and I need its recorded IC50.
-- reply > 100 µM
